Attribution: patent US20240092758A1

# maps each entry to its IC50
test system: IL-13 induced STAT6 phosphorylation in BEAS-2B human lung epithelial cells; experiment: Cellular JAKI potency assay (BEAS-2B); format: cell-based; conditions: Homo sapiens, BEAS-2B, BEAS-2B cells, read-out: BEAS2B pIC50 (converted)

Please review the entries below; each comes with its answer.
>  <Compound>
CCc1cc(O)ccc1-c1ccc2c(-c3nc(C4=CCCN(CCNS(C)(=O)=O)C4)c[nH]3)n[nH]c2c1

>  <IC50>
10 to 31.6 nM

$$$$
>  <Compound>
CCc1cc(O)ccc1-c1ccc2c(-c3nc(C4=CC[C@H](C)N(CCCO)C4)c[nH]3)n[nH]c2c1F

>  <IC50>
10 to 31.6 nM

$$$$
>  <Compound>
CCc1cc(O)ccc1-c1ccc2c(-c3nc(C4=CCN(C[C@H](C)CO)CC4)c[nH]3)n[nH]c2c1F

>  <IC50>
10 to 31.6 nM

$$$$
>  <Compound>
CCc1cc(O)ccc1-c1ccc2c(-c3nc(C4=CCNC(C(C)(C)C)C4)c[nH]3)n[nH]c2c1 (stereo not shown)

>  <IC50>
31.6 to 100 nM

$$$$
>  <Compound>
CCc1cc(O)ccc1-c1ccc2c(-c3nc(C4=CC5CN(C)CCN5CC4)c[nH]3)n[nH]c2c1F (stereo not shown)

>  <IC50>
10 to 31.6 nM

$$$$
>  <Compound>
CCc1cc(O)ccc1-c1ccc2c(-c3nc(C4=C[C@H](CC#N)NC4)c[nH]3)n[nH]c2c1

>  <IC50>
3.16 to 10 nM

$$$$

Read the next record carefully.
Measured IC50, "CCc1cc(O)ccc1-c1ccc2c(-c3nc(C4=CC[C@H](C)N(CCCOC)C4)c[nH]3)n[nH]c2c1F" : 10 to 31.6 nM

----------
# maps each entry to its IC50
test system: IL-13 induced STAT6 phosphorylation in BEAS-2B human lung epithelial cells; test: Cellular JAKI potency assay (BEAS-2B); assay type: cell-based; details: Homo sapiens, BEAS-2B, BEAS-2B cells, read-out: BEAS2B pIC50 (converted)

>  <Test Smiles>
CCc1cc(O)ccc1-c1ccc2c(-c3nc(C4=CCCN(CCN5CCOCC5)C4)c[nH]3)n[nH]c2c1F

>  <Meas Value>
10 to 31.6 nM

$$$$

Read the next record carefully.
Measured IC50, "CCc1cc(O)ccc1-c1ccc2c(-c3nc(C4=C[C@H](CO)N(Cc5cnoc5)C4)c[nH]3)n[nH]c2c1F" : 31.6 to 100 nM

----------
target: JAK3 (Homo sapiens (Human), UniProt P52333); assay: Biochemical JAK kinase assay (LanthaScreen), JAK3; conditions: read-out: JAK3 pKi (converted)
Sequence (P52333 whole entry): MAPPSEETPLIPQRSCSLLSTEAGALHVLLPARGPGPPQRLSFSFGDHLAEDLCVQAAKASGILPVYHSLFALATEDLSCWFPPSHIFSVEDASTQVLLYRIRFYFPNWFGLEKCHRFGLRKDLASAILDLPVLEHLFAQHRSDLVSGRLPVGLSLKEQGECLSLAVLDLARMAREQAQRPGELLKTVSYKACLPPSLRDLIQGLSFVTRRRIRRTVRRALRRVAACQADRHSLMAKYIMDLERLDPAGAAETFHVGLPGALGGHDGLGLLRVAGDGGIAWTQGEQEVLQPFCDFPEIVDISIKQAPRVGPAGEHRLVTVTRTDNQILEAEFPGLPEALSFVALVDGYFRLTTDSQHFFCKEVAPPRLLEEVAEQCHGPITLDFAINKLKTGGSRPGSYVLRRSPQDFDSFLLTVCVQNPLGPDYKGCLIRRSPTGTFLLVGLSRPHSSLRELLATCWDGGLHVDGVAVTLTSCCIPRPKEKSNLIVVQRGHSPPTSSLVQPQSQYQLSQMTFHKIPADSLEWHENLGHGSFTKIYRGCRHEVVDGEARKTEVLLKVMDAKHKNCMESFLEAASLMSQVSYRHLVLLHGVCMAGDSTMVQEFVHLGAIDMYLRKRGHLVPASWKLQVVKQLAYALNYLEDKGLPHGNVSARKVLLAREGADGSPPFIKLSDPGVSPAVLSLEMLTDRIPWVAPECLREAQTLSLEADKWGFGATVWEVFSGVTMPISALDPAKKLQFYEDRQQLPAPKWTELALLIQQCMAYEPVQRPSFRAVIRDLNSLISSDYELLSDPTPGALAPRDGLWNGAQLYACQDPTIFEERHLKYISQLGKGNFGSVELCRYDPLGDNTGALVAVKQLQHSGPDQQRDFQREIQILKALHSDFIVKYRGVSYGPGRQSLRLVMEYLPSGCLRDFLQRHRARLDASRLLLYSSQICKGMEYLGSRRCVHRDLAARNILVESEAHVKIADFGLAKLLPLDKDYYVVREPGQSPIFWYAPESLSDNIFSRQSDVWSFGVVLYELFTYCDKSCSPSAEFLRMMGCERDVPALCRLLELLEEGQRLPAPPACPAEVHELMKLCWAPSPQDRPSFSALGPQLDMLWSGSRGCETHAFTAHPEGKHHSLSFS
# maps each entry to its Ki

>  <Compound>
CCc1cc(O)ccc1-c1ccc2c(-c3nc(C4=CCCN(C5CCCN(C)C5)C4)c[nH]3)n[nH]c2c1F (stereo not shown) [Example 217]

>  <Subject Of Test>
JAK3 (Homo sapiens (Human), UniProt P52333)

>  <Meas Value>
0.1 to 1 nM

$$$$
>  <Compound>
CCc1cc(O)ccc1-c1ccc2c(-c3nc(C4=CCN(CCCO)CC4)c[nH]3)n[nH]c2c1F [Compound 14]

>  <Subject Of Test>
JAK3 (Homo sapiens (Human), UniProt P52333)

>  <Meas Value>
0.1 to 1 nM

$$$$
>  <Compound>
CCc1cc(O)ccc1-c1ccc2c(-c3nc(C4=CCCN(C[C@@H]5COCCN5)C4)c[nH]3)n[nH]c2c1F [Example 196]

>  <Subject Of Test>
JAK3 (Homo sapiens (Human), UniProt P52333)

>  <Meas Value>
0.1 to 1 nM

$$$$
>  <Compound>
CCc1cc(O)ccc1-c1ccc2c(-c3nc(C4=CC[C@H](C)NC4)c[nH]3)n[nH]c2c1 [Example 230]

>  <Subject Of Test>
JAK3 (Homo sapiens (Human), UniProt P52333)

>  <Meas Value>
0.1 to 1 nM

$$$$
>  <Compound>
CCc1cc(O)ccc1-c1ccc2c(-c3nc(C4=CCN(C[C@@H]5CCN5)CC4)c[nH]3)n[nH]c2c1F [Example 390]

>  <Subject Of Test>
JAK3 (Homo sapiens (Human), UniProt P52333)

>  <Meas Value>
0.1 to 1 nM

$$$$

Measured Ki, CCc1cc(O)ccc1-c1ccc2c(-c3nc(C4=CCNCC4)c[nH]3)n[nH]c2c1F [Compound 2] : 1 to 10 nM

Measured Ki, CCc1cc(O)ccc1-c1ccc2c(-c3nc(C4=CCN(C[C@@H]5COCCN5)CC4)c[nH]3)n[nH]c2c1 [Compound 17] : 0.1 to 1 nM
